Where do these numbers come from? They come from PubChem BioAssay (EPA / NIEHS).

# Read-out: Human Leukocyte Antigen - DR isotype (HLADR), HLA-DRA (gene 3122)
# assay_info: BSK_3C_HLADR: BioMAP Diversity Plus: 3C Assay for Human Leukocyte Antigen - DR isotype (HLADR) Biomarker Activity (AID 2283019);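 as to Outcome: ELISA of cell-surface HLA-DR on HUVEC 24 h after dosing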
# condition_label: primary human endothelial cells (HUVEC); actives raise or lower the signal
Activity calls are given as the source filed them. The calls were made as follows: active = hit-call score of the fitted dose curve at least 0.9, where 1 is the maximum; inactive = score below 0.9.
Outcome field: choose from active, inactive

**Query** Any idea what this test logged for CCCCOC(=O)c1ccccc1C(=O)O ?
**Result** inactive

**Query** Which outcome was assigned to Nc1c(Cl)cc([N+](=O)[O-])cc1Cl in this test?
**Result** active

**Query** For CC(C1CC1)C(O)(Cn1cncn1)c1ccc(Cl)cc1 (centres undefined) , which call appears in the assay record?
**Result** inactive

**Query** What call does the record list for CCCSP(=O)(OCC)Oc1ccc(Br)cc1Cl (centres undefined) ?
**Result** inactive

**Query** Look up the recorded call for CNc1cnn(-c2cccc(C(F)(F)F)c2)c(=O)c1Cl in this test.
**Result** active

**Query** Hi, sorry to bother you, what did the test record for Cc1nn(-c2cc(NS(C)(=O)=O)c(Cl)cc2Cl)c(=O)n1C(F)F ?
**Result** inactive

**Query** For CSc1nc(NC(C)C)nc(NC(C)C)n1 , which call appears in the assay record?
**Result** inactive

**Query** Query: recorded result category for CCOP(=S)(OCC)Oc1cc(C)nc(C(C)C)n1 in this test
**Result** inactive

**Query** Given CCC(=O)Nc1ccc(Cl)c(Cl)c1 , state the outcome it received in this test.
**Result** active
